study system: Bcl-xL (Homo sapiens, UniProt Q07817)
Sequence (Q07817 1-212 limits assumed): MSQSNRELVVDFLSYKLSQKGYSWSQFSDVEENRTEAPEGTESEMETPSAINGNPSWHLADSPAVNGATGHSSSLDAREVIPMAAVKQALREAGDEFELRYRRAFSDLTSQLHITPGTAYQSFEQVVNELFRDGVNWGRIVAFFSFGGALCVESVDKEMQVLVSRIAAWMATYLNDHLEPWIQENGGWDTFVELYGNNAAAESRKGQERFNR
protocol description: Competitive fluorescence polarization assay, Bak BH3 peptide binding to Bcl-xL
experimental conditions: fluorescence polarization, Flu-BakBH3; read-out: IC50, disruption of BH3 domain-mediated interactions (Bak BH3 peptide) with Bcl-xL
pIC50: −log10 of the molar value.

# compound, pIC50
records = [
    ("Cc1c(C)c2c(c(C)c1OC(=O)CCC(=O)O)CC[C@@](C)(CCC[C@H](C)CCC[C@H](C)CCCC(C)C)O2 [α-tocopheryl succinate, reference compound]", 4.59),
]

====

System: LNCaP cells
protocol description: MTT cell viability, LNCaP cells
Assay type: cell-based, human
experimental conditions: 24-h exposure, serum-free RPMI 1640, MTT, read-out: IC50, proliferation inhibition
readout: IC50 (µM)

# compound, readout, display unit, test value
measured = [
    ("Cc1c(C)c2c(c(C)c1OC(=O)CCC(=O)O)CC[C@@](C)(CCC[C@H](C)CCC[C@H](C)CCCC(C)C)O2 [α-tocopheryl succinate, reference compound]", "IC50", "µM", 15),
]
